- Test system: LigR (Novosphingobium aromaticivorans DSM 12444), ORF:c1f1f590
- Sequence: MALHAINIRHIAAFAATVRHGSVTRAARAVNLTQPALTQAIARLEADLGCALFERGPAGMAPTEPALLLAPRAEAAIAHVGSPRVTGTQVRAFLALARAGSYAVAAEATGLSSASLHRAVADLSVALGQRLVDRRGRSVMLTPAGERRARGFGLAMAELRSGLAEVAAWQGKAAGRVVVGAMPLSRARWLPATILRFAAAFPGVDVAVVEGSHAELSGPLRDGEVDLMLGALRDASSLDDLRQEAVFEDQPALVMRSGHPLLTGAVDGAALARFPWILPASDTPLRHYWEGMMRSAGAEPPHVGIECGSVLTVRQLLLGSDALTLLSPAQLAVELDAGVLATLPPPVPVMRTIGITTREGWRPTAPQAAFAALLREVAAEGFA
- Assay info: EMSA
- Condition notes: EMSA: 20 nM DNA, 50 mM Tris-HCl, 20 mM HEPES, 1 mM EDTA, 1 mM DTT, 100 mM NaCl, 10% glycerol, pH not stated, room temperature 30 min, gel at 4 C; DNase I …

Item sequence	binding
ATGCCCAGGCCGATGCCGCTGGCGCCGCCCGTCACGAAAGCCGTCTTGCCCGGCAGATTCTGCATCGATCCTCTCCTTTGGTGCCTTGCCGGCAGCCATCGACCGGCGCCGGGAATCATTTTTCGCCTTTTGTATTCACCAGCGAGGAATTGTATGCAAGACTAACAATATTGCTGCTTCGACAAGGCCCGCCGAAATGGGTCGCCGCAGCGGGA (double strand) [ligN upstream EMSA fragment]	no binding
CAAAGGTCGACCCGGCCTCACCGAAGCCGATCAGGGCGATTGTGAACTCAGGAACGCTCTCCATGGCAGCGGTCCTGCGTCGGCCGCGCCAAAGGAACAAATGCAAACATCGCCCAAGGTATAAATTTATGCAAAGCCTTCTGCGGCCACTTCGCGCAGGAGGGCCGCGAAGGCCGCCTGCGGCGCGGTCGGCCGCCAAC (double strand) [SARO_RS14280 promoter EMSA fragment]	binds
CGATCTGAAGTGCTCAACGTGCAAAGCCTGCACAAAATGACAGGTCGTGCCGGCATCTCAATCGCCTGTTGCTTCCCCTTCTGCTGATTGCTATAAATCATAACAGATTGGGAGAGAGTCATGCAGTTTGAACGCATCAATCCGATGACCGGCGCCGTCGCCTCGCAGGCAGAGGCCATGAAAGCGTCGGACATTCCTTC (double strand) [ligV upstream EMSA fragment]	no binding
GGACGACGATACCCGACATTTCCGGCTCCCGATGAAAGATCTTCGCGCGTTCCATGGAACTGCGGACCGCAGGGAACCAATGCATTGTTTGCCCCGGCCCATAAGGAAATGCTAAGTGATCAGGCATGGCCCTGCACGCGATCAACATCAGGCACATCGCCGCCTTCGCCGCAACGGTGCGCCACGGCAGCGTGACGCGG (double strand) [ligK promoter EMSA fragment]	binds
